Inh% (100-Act%) by entry:
Molecular target: CepR (Burkholderia cenocepacia, UniProt B4EMD0)
Assay: CepR antagonism in E. coli β-galactosidase reporter (Ec-reporter), competition against C8-AHL
Type: cell-based, B. cenocepacia
Conditions: Table S3, Ec-reporter; screening conc. 100 μM; against 10 nM C8-AHL
Protocol: We began our study by screening the AHL library for CepR modulators using an E. coli-based two plasmid reporter system (Ec-reporter)[38]–[40]. […] Cells were grown for 4 h, OD600 was read, 50 μL aliquots from each well were permeabilized in 200 μL Z Buffer, and then 150 μL of this mixture used to measure the cleavage of 25 μL of 4 mg/mL CPRG in phosphate buffered saline (PBS) at 37 °C until positive control wells developed a deep red color (~30 min). […]
Answer format: numeric, % implied, no suffix.

The cases that follow already have their Inh% (100-Act%) on record.
[
  {
    "Compound": "CCCC(=O)CC(=O)NC1CCSC1=O (stereo not shown)",
    "Inh% (100-Act%)": 4.0
  },
  {
    "Compound": "CCCCCC(O)CC(=O)N[C@H]1CCOC1=O (stereo partly shown) [3’OH-C8-AHL, reference compound]",
    "Inh% (100-Act%)": -20
  },
  {
    "Compound": "COc1cc(C(C)=O)ccc1OCC(=O)N[C@H]1CCOC1=O",
    "Inh% (100-Act%)": 0.0
  }
]

Consider O=C(Nc1ccccc1NC(=O)c1cccc(Cl)c1)c1cccc(Cl)c1 [TP-5, reference compound] . Its measured Inh% (100-Act%) is 24

Consider Cc1ccc(CCC(=O)N[C@H]2CCOC2=O)cc1 . Its measured Inh% (100-Act%) is -10

Consider O=C(CCc1cccc(Br)c1)N[C@H]1CCOC1=O . Its measured Inh% (100-Act%) is -20

Consider COc1cccc(CC(=O)N[C@H]2CCOC2=O)c1 [Compound E2] . Its measured Inh% (100-Act%) is -10

Consider O=C(Cc1cccc2ccccc12)N[C@H]1CCOC1=O . Its measured Inh% (100-Act%) is 50

Consider CCCCCCCCOc1ccc(C(=O)N[C@H]2CCOC2=O)cc1 . Its measured Inh% (100-Act%) is -20

Consider CC(C)(C)OC(=O)NCCCCC(=O)N[C@H]1CCOC1=O [Compound D1] . Its measured Inh% (100-Act%) is 11

====

Biological target: CepR (Burkholderia cenocepacia, UniProt B4EMD0)
Sequence (B4EMD0 1-239): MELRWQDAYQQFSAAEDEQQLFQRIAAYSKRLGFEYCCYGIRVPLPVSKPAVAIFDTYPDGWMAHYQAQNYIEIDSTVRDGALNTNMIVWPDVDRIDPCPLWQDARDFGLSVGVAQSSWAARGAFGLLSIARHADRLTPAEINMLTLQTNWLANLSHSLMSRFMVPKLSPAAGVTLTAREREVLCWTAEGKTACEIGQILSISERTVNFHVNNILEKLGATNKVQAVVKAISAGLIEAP
Experiment: CepR agonism in E. coli β-galactosidase reporter (Ec-reporter) JLD271 [pJN105-cepR + pSC11-cepI]
Format: cell-based, B. cenocepacia
Settings: Table S2, Ec-reporter; screening conc. 100 μM
Reported Property: Act% (%)
Answer format: numeric, % implied, no suffix.

The cases that follow already have their Act% on record.
[
  {
    "Molecule": "Cc1ccc(C(=O)N[C@H]2CCOC2=O)cc1",
    "Act% (%)": 19
  },
  {
    "Molecule": "CCCCCCCCCC(O)CC(=O)N[C@H]1CCOC1=O (stereo partly drawn) [3’OH-C12-AHL, reference compound]",
    "Act% (%)": 52
  },
  {
    "Molecule": "O=C(N[C@H]1CCOC1=O)c1ccc2c(c1)OCO2",
    "Act% (%)": 6.9
  },
  {
    "Molecule": "CCCC(=O)CC(=O)NC1CCSC1=O (stereo not drawn)",
    "Act% (%)": 1.6
  },
  {
    "Molecule": "CC(C)(C)OC(=O)c1ccc(C(=O)N[C@H]2CCOC2=O)cc1",
    "Act% (%)": 6.8
  }
]

Consider O=C(CCCc1ccccc1)N[C@H]1CCOC1=O [Control 6, reference compound] . Its measured Act% is 80

Consider O=C(Cc1ccccc1F)N[C@H]1CCOC1=O . Its measured Act% is 0.1

Consider O=C(Cc1ccc([N+](=O)[O-])cc1)N[C@H]1CCOC1=O . Its measured Act% is 1.1

Consider CCCCCCC(=O)N[C@H]1CCOC1=O [Compound C7-AHL, reference compound] . Its measured Act% is 106

====

Biological target: CepR (Burkholderia multivorans, UniProt Q93PF7)
Sequence (Q93PF7 1-239): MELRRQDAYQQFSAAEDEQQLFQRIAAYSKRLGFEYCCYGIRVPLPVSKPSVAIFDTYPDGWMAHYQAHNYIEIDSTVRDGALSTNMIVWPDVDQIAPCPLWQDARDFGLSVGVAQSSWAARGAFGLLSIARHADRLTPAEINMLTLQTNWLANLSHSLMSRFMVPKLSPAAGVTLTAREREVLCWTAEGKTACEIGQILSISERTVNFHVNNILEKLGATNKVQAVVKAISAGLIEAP
Test: CepR agonism in B. multivorans cepI::lacZ reporter (Bm-reporter)
Format: cell-based
pEC50 by entry:
Please express pEC50 as -log10 of the molar concentration.

The cases that follow already have their pEC50 on record.
[
  {
    "Molecule": "O=C(CCc1ccc([N+](=O)[O-])cc1)N[C@H]1CCOC1=O",
    "Reported Property": "pEC50",
    "Measured Value": 11.60
  },
  {
    "Molecule": "CCCCCCCC(=O)N[C@H]1CCOC1=O [Compound C8-AHL, N-octanoyl L-homoserine lactone, reference compound]",
    "Reported Property": "pEC50",
    "Measured Value": 9.15
  },
  {
    "Molecule": "O=C(CCc1ccc(C(F)(F)F)cc1)N[C@H]1CCOC1=O",
    "Reported Property": "pEC50",
    "Measured Value": 10.66
  }
]

Switching to the query record.
Consider O=C(CCc1ccc(I)cc1)N[C@H]1CCOC1=O . Its measured pEC50 is 10.10

====

Biological target: CepR (Burkholderia cenocepacia)
Assay: CepR agonism in E. coli β-galactosidase reporter (Ec-reporter) JLD271 [pJN105-cepR + pSC11-cepI]
Format: cell-based, B. cenocepacia
Conditions: Table S2, Ec-reporter; screening conc. 100 μM
Act% by entry:
Answer format: numeric, % implied, no suffix.

The cases that follow already have their Act% on record.
[
  {
    "Compound": "O=C(N[C@H]1CCOC1=O)C1CCCC1",
    "Measured Value": 0.2
  },
  {
    "Compound": "O=C(COc1ccccc1)N[C@H]1CCOC1=O",
    "Measured Value": 57
  },
  {
    "Compound": "CCCCCCCCCC(=O)N[C@H]1CCOC1=O [Compound C10-AHL, decanoyl L-homoserine lactone, reference compound]",
    "Measured Value": 87
  },
  {
    "Compound": "O=C(Cc1ccc(I)cc1)N[C@H]1CCOC1=O",
    "Measured Value": 29
  },
  {
    "Compound": "CCCCCCCCCC(=O)NC1CCCC1 [Compound C10-CPA, reference compound]",
    "Measured Value": 48
  },
  {
    "Compound": "CCCc1ccc(C(=O)CCC(=O)N[C@H]2CCOC2=O)cc1",
    "Measured Value": 18
  },
  {
    "Compound": "O=C(Cc1cccc([N+](=O)[O-])c1)Nc1cccc([N+](=O)[O-])c1",
    "Measured Value": 25
  },
  {
    "Compound": "CCCCCCCCCC(=O)CC(=O)NC1CCCCC1=O (stereo not drawn) [Control 15, reference compound]",
    "Measured Value": 5.2
  }
]

Switching to the query record.
Consider O=C(COc1ccc(Cl)cc1)N[C@H]1CCOC1=O . Its measured Act% is 100

====

Inh% (100-Act%) by entry:
Molecular target: CepR (Burkholderia cenocepacia, UniProt B4EMD0)
Sequence (B4EMD0 1-239): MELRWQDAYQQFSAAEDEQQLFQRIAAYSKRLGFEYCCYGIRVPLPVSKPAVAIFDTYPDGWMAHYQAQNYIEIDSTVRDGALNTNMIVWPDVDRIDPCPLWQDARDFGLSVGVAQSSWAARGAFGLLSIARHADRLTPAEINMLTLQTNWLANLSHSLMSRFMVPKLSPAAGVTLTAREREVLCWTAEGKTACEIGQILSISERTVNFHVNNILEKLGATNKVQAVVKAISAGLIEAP
Experiment: CepR antagonism in E. coli β-galactosidase reporter (Ec-reporter), competition against C8-AHL
Format: cell-based, B. cenocepacia
Settings: Table S3, Ec-reporter; screening conc. 100 μM; against 10 nM C8-AHL
Answer format: numeric, % implied, no suffix.

The cases that follow already have their Inh% (100-Act%) on record.
[
  {
    "Compound": "CCCCCCCCCC(=O)CC(=O)Nc1cccc(OC)c1 [Control 13, reference compound]",
    "Assay System": "CepR (Burkholderia cenocepacia, UniProt B4EMD0)",
    "Measured Value": 13
  },
  {
    "Compound": "O=C(Cc1ccccc1)NC1CCCC1",
    "Assay System": "CepR (Burkholderia cenocepacia, UniProt B4EMD0)",
    "Measured Value": -30
  },
  {
    "Compound": "O=C(CCCc1ccccc1)N[C@@H]1CCOC1=O",
    "Assay System": "CepR (Burkholderia cenocepacia, UniProt B4EMD0)",
    "Measured Value": -30
  },
  {
    "Compound": "O=C(CC(=O)N[C@H]1CCOC1=O)Cc1cccc(Cl)c1",
    "Assay System": "CepR (Burkholderia cenocepacia, UniProt B4EMD0)",
    "Measured Value": -20
  },
  {
    "Compound": "O=C(CCc1cccc(I)c1)N[C@H]1CCOC1=O",
    "Assay System": "CepR (Burkholderia cenocepacia, UniProt B4EMD0)",
    "Measured Value": -20
  }
]

Consider O=C(N[C@H]1CCOC1=O)c1ccc(F)cc1 . Its measured Inh% (100-Act%) is 17

Consider CCCCCCCCc1ccc(C(=O)N[C@H]2CCOC2=O)cc1 . Its measured Inh% (100-Act%) is 38

Consider CCCCCCCCS(=O)(=O)N[C@H]1CCOC1=O . Its measured Inh% (100-Act%) is 17

Consider O=C(Cc1ccc(Cl)cc1)N[C@H]1CCOC1=O . Its measured Inh% (100-Act%) is 25

Consider CCCCCCCCCC(O)CC(=O)N[C@H]1CCOC1=O (some centres unmarked) [3’OH-C12-AHL, reference compound] . Its measured Inh% (100-Act%) is 0.0

Values compiled from paper PMC6748986.
